# Test system: RNA1 (target region of miR-210)
# Assay procedure: Melting temperature (Tm) of PNA:RNA duplexes, full-match RNA
# Type: binding
# Conditions: UV absorbance at 260 nm, PBS buffer pH 7, no urea, strand concentration 5 μM
Observed property: Tm, RNA1 in water

(Q) Under RNA1 (target region of miR-210): Tm, RNA1 in water value of H-R8CCGCTGTCACACGCACAG-NH2 [PNA2, 18-mer anti-miR-210 PNA conjugated with octaarginine (R8) peptide, reference compound] ?
(A) >90 °C

(Q) Under RNA1 (target region of miR-210): Tm, RNA1 in water value of H-CCGCTGTCACACGCACAG-NH2 [PNA1, unmodified achiral "naked" 18-mer PNA targeted against miR-210, reference compound] ?
(A) 88 °C

(Q) Under RNA1 (target region of miR-210): Tm, RNA1 in water value of H-C5LArgC5LArgG5LArgC5LArgT5LArgG5LArgT5LArgC5LArgACACGCACAG-NH2 [PNA4, 5L Arg (C5) backbone-modified 18-mer PNA, model 2, stretch of consecutive modified monomers] ?
(A) >90 °C

(Q) Under RNA1 (target region of miR-210): Tm, RNA1 in water value of H-CC2DARGGC2DARGTG2DARGTC2DARGAC2DARGAC2DARGGC2DARGAC2DARG AG-NH2 [PNA5, 2D Arg (C2) backbone-modified 18-mer PNA, model 1, alternating modified monomers] ?
(A) >90 °C

(Q) Under RNA1 (target region of miR-210): Tm, RNA1 in water value of H-C2DArgC2DArgG2DArgC2DArgT2DArgG2DArgT2DArgC2DArgACACGCACAG-NH2 [PNA6, 2D Arg (C2) backbone-modified 18-mer PNA, model 2, stretch of consecutive modified monomers] ?
(A) >90 °C

====

# Tested on: miR-210
# Assay procedure: miR-210 content by RT-qPCR analysis
# Format: cell-based, human
# Conditions: K562 cells, PNA 2 μM, 24 h, Figure 5 A and B, relative to pept-1
Observed property: inhibition of miR-210 bioavailability (miR-210 content)

[[record]]
substance = "H-C2DArgC2DArgG2DArgC2DArgT2DArgG2DArgT2DArgC2DArgACACGCACAG-NH2 [PNA6, 2D Arg (C2) backbone-modified 18-mer PNA, model 2, stretch of consecutive modified monomers]"
assay_result = "Stronger inhibition"

[[record]]
substance = "H-C5LArgC5LArgG5LArgC5LArgT5LArgG5LArgT5LArgC5LArgACACGCACAG-NH2 [PNA4, 5L Arg (C5) backbone-modified 18-mer PNA, model 2, stretch of consecutive modified monomers]"
assay_result = "Stronger inhibition"

[[record]]
substance = "H-R8CCGCTGTCACACGCACAG-NH2 [PNA2, 18-mer anti-miR-210 PNA conjugated with octaarginine (R8) peptide, reference compound]"
assay_result = "Stronger inhibition"

